biological target: human ERK-2 (Homo sapiens, UniProt P28482); construct: n-terminal 6-His fusion protein in E. coli and corresponding to aa 8-360; 6-His (N); experiment: Labchip Kinase ERK Assay (Example 3); conditions: LabChip Erk Assay (footnote 2), 25 μM ATP, Caliper LabChip 3000; read-out: ERK Inhibition IC50
Sequence (P28482 8-360): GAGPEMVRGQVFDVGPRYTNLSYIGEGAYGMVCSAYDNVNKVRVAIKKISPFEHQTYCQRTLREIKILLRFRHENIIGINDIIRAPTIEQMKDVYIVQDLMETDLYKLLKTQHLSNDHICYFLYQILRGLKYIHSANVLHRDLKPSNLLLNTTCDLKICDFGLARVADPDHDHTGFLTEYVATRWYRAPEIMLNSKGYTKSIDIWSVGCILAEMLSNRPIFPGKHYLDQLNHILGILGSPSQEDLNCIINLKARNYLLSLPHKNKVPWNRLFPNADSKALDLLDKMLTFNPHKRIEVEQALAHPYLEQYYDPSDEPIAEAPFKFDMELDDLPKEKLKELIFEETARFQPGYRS
Response field label takes Fulfilled when IC50 is strictly below 100 nM and Not fulfilled in all other cases.

[[record]]
itemsmiles = "c1ccc(Cn2cc(-c3c[nH]c4ncc(-c5ccc6cn[nH]c6c5)nc34)cn2)cc1"
labelvalue = "Not fulfilled"

[[record]]
itemsmiles = "Cc1cc(-c2cnc3[nH]cc(-c4cnn(Cc5cccc(F)c5)c4)c3n2)ccn1"
labelvalue = "Fulfilled"

[[record]]
itemsmiles = "Cc1nn(C)c(C)c1-c1cnc2[nH]cc(-c3cnn(Cc4ccccc4)c3)c2n1"
labelvalue = "Not fulfilled"

[[record]]
itemsmiles = "Cc1noc(C)c1-c1cnc2[nH]cc(-c3cnn(Cc4ccccc4)c3)c2n1"
labelvalue = "Not fulfilled"

[[record]]
itemsmiles = "Cc1cc(-c2c[nH]c3ncc(-c4ccncc4)nc23)cnc1Cl"
labelvalue = "Fulfilled"

[[record]]
itemsmiles = "c1cncc(Cn2cc(-c3c[nH]c4ncc(-c5ccncc5)nc34)cn2)c1"
labelvalue = "Fulfilled"

[[record]]
itemsmiles = "Cc1cc(-c2c[nH]c3ncc(-c4ccncc4)nc23)cnc1F"
labelvalue = "Fulfilled"

[[record]]
itemsmiles = "Cc1[nH]ncc1-c1cnc2[nH]cc(-c3cnn(Cc4cccc(OC(F)(F)F)c4)c3)c2n1"
labelvalue = "Fulfilled"

